system: MT-2 human T-lymphoid cells
measuredProperty: CC50 (µM)
Answers are plain numbers, in µM.

[
  {
    "compound": "COc1ccc(S(=O)(=O)N(CC(C)C)C[C@@H](O)[C@H](Cc2ccccc2)NC(=O)OC2CO[C@H]3OCC(F)(F)[C@@H]23)cc1 (some centres unmarked)",
    "unitLabel": "µM",
    "CC50": 17.5
  }
]

# input for lookup
Prompt: For CC(C)CN(C[C@@H](O)[C@H](Cc1ccccc1)NC(=O)O[C@H]1CO[C@H]2OCC(F)(F)[C@H]21)S(=O)(=O)c1ccc(N)cc1 , write its CC50.
Response: 37

* * *

tested on: HIV-1MDR/C(X4); assay: microbe, parasite or virus in culture; format: cell-based; settings: PHA-PBMs, p24 Gag production; mean ± 1 SD
measuredProperty: pEC50
One number for each entry, as −log10 of the molar value.

[
  {
    "compound": "CC(C)CN(C[C@@H](O)[C@H](Cc1ccccc1)NC(=O)O[C@H]1CO[C@H]2OCC(F)(F)[C@H]21)S(=O)(=O)c1ccc(N)cc1",
    "pEC50": 8.70
  }
]

# input for lookup
Prompt: For COc1ccc(S(=O)(=O)N(CC(C)C)C[C@@H](O)[C@H](Cc2ccccc2)NC(=O)OC2CO[C@H]3OCC(F)(F)[C@@H]23)cc1 (some centres unmarked) , write its pEC50.
Response: 8.70
